Reference source: the array DNA melting data of Ke et al. (doi:10.1101/2024.01.08.574731)

Assay: folding enthalpy; higher = less favourable; fluorescence melt of hairpins on a sequencing array, two-state fit
Details: sodium 0.088 M
Ranges used to classify folding enthalpy: group 1: < -30 kcal/mol; group 2: ≥ -30 kcal/mol and < -20 kcal/mol; group 3: ≥ -20 kcal/mol

POLYMER SEQUENCE	CATEGORY
GATCTTAGCGAAGATC ((((((....))))))	group 1
GAAGGAGGAAACTCCCTC ((.((((....)))).))	group 3
GATCCGGGAAACCGAATC (((.(((....))).)))	group 2
GTGATTCCGAAAGGACAC (((..(((....))))))	group 3
GCGGTCGCGAAAGCGCGC (((..(((....))))))	group 3
GATGACGGAAACGTCATC (((((((....)))))))	group 1
GATCCGACATCGGATC ((((((....))))))	group 1
GACAGCCGAAAGGCGTC (((.(((....))))))	group 3
GCGTTCTAACGC ((((....))))	group 2
GCGAGCGAAAGCTTTCGC ((((((....)))..)))	group 3
GACTCCGGAAACAGAGTC (((((.(....).)))))	group 1
GCGGCCGCGAAAGCGCGC (((..(((....))))))	group 3
GCGAATGAAAATTCGC ((((((....))))))	group 1
CGGAACGGAAACGTACCG (((.(((....))).)))	group 1
GATCTTGGAAAGATC ((((((...))))))	group 1
GACGTTGCGAAAGCAGTC (((..(((....))))))	group 3
GATCTCCGTCGAGATC ((((((....))))))	group 1
GTCGAAGGAAACTTTGAC (((.(((....))).)))	group 1
GTGTACGGAAACGTACGC (.(((((....))))).)	group 2
GATCGTTGAGACGATC ((((((....))))))	group 1
GTGCACGAAAGTGAGCAC ((((((....)))..)))	group 1
GGTGGCGGAAACGTCACC ((((.((....)).))))	group 1
GATCGTGAGCACGATC ((((((....))))))	group 1
GTGGCTTCGAAAGAACAC (((..(((....))))))	group 3
GTTGATCGAAAGATAAAC (((.(((....))).)))	group 2
GGATAGGCGAAAGCCTCC (((..(((....))))))	group 3
GATCTACGACTAGATC ((((((....))))))	group 1
GTGACCGAAAGGTTACAC ((((((....)))..)))	group 3
GCTGAGCGAAAGCTGCGC ((..(((....)))..))	group 3
GGCTTAACGAAAGTTGCC (((..(((....))))))	group 2
GAAACGGGAAACTGTTTC (((((.(....).)))))	group 2
GACCGCGAAAGCGCAGTC ((((((....)))..)))	group 3
GCAACACGAAAGTGATGC (((.(((....))).)))	group 1
GTGGACGGAAACGCCCAC ((((.((....)).))))	group 1

###

Experiment: folding enthalpy; higher = less favourable; fluorescence melt of hairpins on a sequencing array, two-state fit
Conditions: sodium 0.088 M
Ranges used to classify folding enthalpy: zone 1 (below -30 kcal/mol), zone 2 (-30 kcal/mol to below -20 kcal/mol), zone 3 (-20 kcal/mol or more)

POLYMER SEQUENCE	CATEGORY
GATCAGGCATCTGATC ((((((....))))))	zone 1
GCTAGCGAAAGCTTAAGC ((((((....)))..)))	zone 3
TAGGGGAAACCCTA (((((....)))))	zone 3
GGCGTTGGAAACAGTGCC (((..((....))..)))	zone 2
CGTAAGAAATTACG (((((....)))))	zone 3
GATCAATATGTTGATC ((((((....))))))	zone 1
GACACCGAAAGGTTGGTC ((((((....)))..)))	zone 3
GCCCACCGAAAGGTCGGC (((.(((....))).)))	zone 1
GATCCTAACAGGATC ((((((...))))))	zone 1
GATCTTTGGGAAGATC ((((((....))))))	zone 1
GGTTGCGAAAGCAGACC ((((((....))).)))	zone 2
GCACAGGGAAACTTGTGC (((((.(....).)))))	zone 1
GTTTTCGGAAACGAAGAC ((.((((....)))).))	zone 2
GTCACTACGAAAGTAGAC (((..(((....))))))	zone 3
GCCCCGCGAAAGCTGGGC ((((.((....)).))))	zone 1
GTCCGGTCGAAAGACGAC (((..(((....))))))	zone 3
GGGGGCGAAAGCCTGCCC ((((((....)))..)))	zone 3
GATCGCTACTGCGATC ((((((....))))))	zone 1
GATCCAGGATTGGATC ((((((....))))))	zone 1
GATCAGACGCTGATC ((((((...))))))	zone 1
GTGATAGGAAACTATTAC ((.((((....)))).))	zone 2
GGTCTCGGAAACGAGGTC (..((((....))))..)	zone 3
GTGGCCGAAAGGCCTCAC ((((((....)))..)))	zone 3
GGAATCCGAAAGGAGTCC (((.(((....))).)))	zone 1
GCCTTGCGAAAGCAATGC ((.((((....)))).))	zone 3
GATCAGCGCGCTGATC ((((((....))))))	zone 1
GATCGTGTCTACGATC ((((((....))))))	zone 1
GCGTACAAACGC ((((....))))	zone 2
GGCTTTCGAAAGAATGCC (((.(((....))).)))	zone 1
GGTACCGAAAGGTAGACC ((((((....)))..)))	zone 3
GCTAGCGGAAACGTTAGC ((((.((....)).))))	zone 1
GGCTATCGAAAGATGGCC (((.(((....))).)))	zone 1
